target: T1, human collagen type I, acid soluble, extracted from placenta (Sigma C7774) (human, UniProt P02452 162-1218; P08123 80-1119); experiment: dried collagen assay; note: test concentration or dose not given here
T1 construct: tissue extract, gelled and dried in wells; also called dried human collagen; h-Collagen
T1 sequence (P02452 162-1218 limits assumed, chain 1 of 2): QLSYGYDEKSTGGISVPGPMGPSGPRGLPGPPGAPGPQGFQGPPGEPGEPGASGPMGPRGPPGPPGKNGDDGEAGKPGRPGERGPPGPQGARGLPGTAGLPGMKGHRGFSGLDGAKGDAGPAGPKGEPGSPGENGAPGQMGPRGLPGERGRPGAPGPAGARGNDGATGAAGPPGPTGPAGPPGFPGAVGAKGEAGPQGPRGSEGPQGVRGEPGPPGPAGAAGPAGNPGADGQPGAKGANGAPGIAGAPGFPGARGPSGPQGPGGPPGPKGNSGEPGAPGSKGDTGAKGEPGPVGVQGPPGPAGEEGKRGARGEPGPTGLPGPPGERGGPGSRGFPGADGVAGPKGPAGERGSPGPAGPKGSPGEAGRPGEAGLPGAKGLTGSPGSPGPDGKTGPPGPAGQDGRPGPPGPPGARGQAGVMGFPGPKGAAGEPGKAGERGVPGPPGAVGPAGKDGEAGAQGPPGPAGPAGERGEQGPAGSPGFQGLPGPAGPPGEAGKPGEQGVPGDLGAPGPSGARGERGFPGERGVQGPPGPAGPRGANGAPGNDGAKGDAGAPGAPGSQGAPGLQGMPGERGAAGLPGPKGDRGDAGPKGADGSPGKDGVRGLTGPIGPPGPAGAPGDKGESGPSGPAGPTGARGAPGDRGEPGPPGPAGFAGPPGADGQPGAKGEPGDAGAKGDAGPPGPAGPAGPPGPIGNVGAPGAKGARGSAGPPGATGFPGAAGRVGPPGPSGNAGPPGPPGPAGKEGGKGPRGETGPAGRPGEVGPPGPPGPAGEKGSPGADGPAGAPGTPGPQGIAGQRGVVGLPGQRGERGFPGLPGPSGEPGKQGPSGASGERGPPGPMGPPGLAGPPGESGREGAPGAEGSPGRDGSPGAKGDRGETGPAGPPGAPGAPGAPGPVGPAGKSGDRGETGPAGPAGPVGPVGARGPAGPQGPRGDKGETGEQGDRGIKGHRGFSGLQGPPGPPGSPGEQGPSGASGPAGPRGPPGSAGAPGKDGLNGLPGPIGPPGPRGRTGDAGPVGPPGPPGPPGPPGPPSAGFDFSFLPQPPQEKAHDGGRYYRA
T1 sequence (P08123 80-1119 limits assumed, chain 2 of 2): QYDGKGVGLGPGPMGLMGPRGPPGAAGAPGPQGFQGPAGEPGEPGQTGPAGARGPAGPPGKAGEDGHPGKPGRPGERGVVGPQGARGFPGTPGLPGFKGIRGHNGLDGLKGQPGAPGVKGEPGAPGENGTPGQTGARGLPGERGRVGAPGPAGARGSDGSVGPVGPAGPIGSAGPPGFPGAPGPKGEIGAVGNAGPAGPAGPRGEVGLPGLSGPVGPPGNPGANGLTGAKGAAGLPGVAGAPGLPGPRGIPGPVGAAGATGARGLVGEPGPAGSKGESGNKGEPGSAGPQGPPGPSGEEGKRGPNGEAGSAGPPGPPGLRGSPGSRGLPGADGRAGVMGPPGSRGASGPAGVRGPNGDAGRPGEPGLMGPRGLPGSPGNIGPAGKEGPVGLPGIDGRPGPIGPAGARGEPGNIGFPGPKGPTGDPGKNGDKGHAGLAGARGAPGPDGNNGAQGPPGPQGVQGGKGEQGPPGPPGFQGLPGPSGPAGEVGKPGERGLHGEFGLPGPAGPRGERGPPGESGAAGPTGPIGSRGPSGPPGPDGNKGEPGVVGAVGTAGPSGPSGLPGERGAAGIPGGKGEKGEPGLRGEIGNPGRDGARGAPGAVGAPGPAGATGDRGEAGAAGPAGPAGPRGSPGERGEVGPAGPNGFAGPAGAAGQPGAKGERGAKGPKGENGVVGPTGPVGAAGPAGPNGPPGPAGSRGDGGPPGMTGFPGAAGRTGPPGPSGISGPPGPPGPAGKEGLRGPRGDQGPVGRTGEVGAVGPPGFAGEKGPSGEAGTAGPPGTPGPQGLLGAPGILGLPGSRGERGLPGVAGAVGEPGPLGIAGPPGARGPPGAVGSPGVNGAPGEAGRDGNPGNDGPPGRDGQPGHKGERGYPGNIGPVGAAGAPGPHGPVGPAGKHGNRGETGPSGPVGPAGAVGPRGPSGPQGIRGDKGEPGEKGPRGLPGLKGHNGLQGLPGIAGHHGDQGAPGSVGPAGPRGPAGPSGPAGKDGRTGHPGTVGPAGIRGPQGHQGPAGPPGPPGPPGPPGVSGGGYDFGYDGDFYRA
Bridge positions count the residues as written; N and C are the ends. Ends that are not written are not given here.
Property Name: % bound

[[record]]
binder = "HWQCRLTDYGWNCDER (disulfide 4-13 (inferred), cyclic, disulfide) [SEQ ID NO 59]"
assay_result = "10%"

[[record]]
binder = "EWHCVLNDFRWTCGGD (disulfide 4-13 (inferred), cyclic, disulfide) [SEQ ID NO 60]"
assay_result = "10%"

[[record]]
binder = "YSACYQAGCYIY (disulfide 4-9 (inferred), cyclic, disulfide) [SEQ ID NO 110]"
assay_result = "10%"


Provenance of the data: patent US20080044360A1
